Target: human recombinant PLA2 (group II) (Homo sapiens, UniProt P14555)
Sequence (P14555 21-144): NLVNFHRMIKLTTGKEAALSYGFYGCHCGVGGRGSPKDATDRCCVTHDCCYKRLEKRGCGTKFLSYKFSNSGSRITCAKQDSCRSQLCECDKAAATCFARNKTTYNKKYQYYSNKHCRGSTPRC
Test: Fluorometric anti-PLA2 assay, human recombinant PLA2 (group II)
Details: measured for fluorescence with human recombinant PLA2 (group II); read-out: Anti-PLA2 activity IC50 HPLA2
Description: Phospholipase A2 hydrolyzes an ester linkage at the sn-2 position of glycerophospholipid and liberates fatty acids and lysophospholipids. The in vitro action of particular compounds was evaluated by the analysis of fatty acids according to the fluorometric method described in Radvanyi et al., Anal. Biochem. 1989, 177. […] The fluorometric analysis was performed using a Perkin Elmer LS50 luminescence spectrometer in a unit dosage polystyrene cell having a size of 1 cm. […]
value.kind: pIC50
Please keep in mind that pIC50 is minus log10 of the molar concentration; only the number is needed.

See these solved cases before continuing.
CCCCCCCCCCCCCCCCCCN1CCN(C(=O)c2ccc(Cc3noc(=O)[nH]3)cc2)CC1 [Compound 6] ... 6.10
CCCCCCCCCCCCCCN1CCN(Cc2ccc(Cc3noc(=O)[nH]3)cc2)C(=O)C1 [Example 7] ... 4.52
CCCCCCCCCCCCCCCCCCN1CCN(C(=O)c2ccc(C=C3SC(=O)NC3=O)cc2)CC1 [Compound 14] ... 6.55
CCCCCCCCCCCCCCCCCCN1CCN(c2ccc(Cc3noc(=O)[nH]3)cc2)CC1 [Compound 10] ... 5.57
CCCCCCCCCCCCCCCCCCN1CCN(C(=O)c2ccc(CC3SC(=O)NC3=O)cc2)CC1 (stereo not shown) [Compound 15] ... 6.00
CCCCCCCCCCCCCCN1CCN(C(=O)c2ccc(Cc3noc(=O)[nH]3)cc2)CC1 [Example 8] ... 4.73

# input for lookup
INPUT: Suppose we examine the compound CCCCCCCCCCCCCCN1CCN(C(=O)c2ccc(CCCc3noc(=O)[nH]3)cc2)CC1 [Example 9] ; what pIC50 value has been reported?
OUTPUT: 5.28
